conditions.used: in isopropanol, 308.15 K
assay.metric: solubility (mole fraction)
I only need the number, thanks.

Task: Can you look up the measured solubility (mole fraction) of CC1Cc2ccccc2N1NC(=O)c1ccc(Cl)c(S(N)(=O)=O)c1 (stereo unspecified) for me?
Output: 0.00979
